target: Tyrosine-protein phosphatase non-receptor type substrate 1 (Homo sapiens) + Leukocyte surface antigen CD47 (Homo sapiens) (UniProt P78324+Q08722); assay: CD47-SIRPalpha protein protein interaction - LANCE assay qHTS validation (AID 1347057); conditions: Recombinant CD47-His / biotin-SIRPalpha, TR-FRET ratio; series mostly up to 38.3 µM; also: 0% is about no effect
Sequence (P78324 whole entry, looked up): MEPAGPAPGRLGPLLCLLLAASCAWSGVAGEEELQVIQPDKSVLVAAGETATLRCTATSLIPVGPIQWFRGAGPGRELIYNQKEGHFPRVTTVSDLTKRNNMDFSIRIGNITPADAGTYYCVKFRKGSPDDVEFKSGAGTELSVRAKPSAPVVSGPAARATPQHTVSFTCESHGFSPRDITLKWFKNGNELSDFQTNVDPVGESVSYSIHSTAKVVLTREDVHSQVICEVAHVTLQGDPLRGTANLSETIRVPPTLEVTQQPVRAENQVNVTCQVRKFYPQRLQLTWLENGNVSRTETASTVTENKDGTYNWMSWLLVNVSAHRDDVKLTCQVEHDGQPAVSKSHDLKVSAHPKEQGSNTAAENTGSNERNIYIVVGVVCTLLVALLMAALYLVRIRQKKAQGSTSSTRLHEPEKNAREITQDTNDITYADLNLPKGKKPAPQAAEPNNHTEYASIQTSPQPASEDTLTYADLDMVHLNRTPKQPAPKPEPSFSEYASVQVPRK
Sequence (Q08722 whole entry, looked up): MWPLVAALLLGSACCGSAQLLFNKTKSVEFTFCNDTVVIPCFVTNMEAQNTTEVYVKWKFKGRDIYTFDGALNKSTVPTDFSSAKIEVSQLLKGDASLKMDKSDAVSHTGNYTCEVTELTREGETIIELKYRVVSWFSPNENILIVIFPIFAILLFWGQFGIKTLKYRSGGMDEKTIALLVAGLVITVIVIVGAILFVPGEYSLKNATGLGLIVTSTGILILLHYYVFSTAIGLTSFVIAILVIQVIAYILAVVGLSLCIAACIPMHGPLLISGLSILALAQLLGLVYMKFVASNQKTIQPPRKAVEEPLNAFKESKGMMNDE
Records with an inconclusive call do not appear. Active and inactive are the calls of the source. Calls follow the shape of the dose curve; as a rule, active = well fitted curve in the direction sought with a large enough effect in the signal ratio, with a control signal flat (not every such curve was filed as active); inconclusive = small, poorly fitted or top-dose-only effect, or effect the other way, or a change in a side signal; inactive = no such curve, though single readings can be large or run the other way; the % refers to the signal ratio.

>  <STRUCTURE>
CCN(CC)CCOC(=O)C1(C2CCCCC2)CCCCC1

>  <outcome>
inactive

$$$$
>  <STRUCTURE>
C#CCN(C)Cc1ccccc1

>  <outcome>
inactive

$$$$
>  <STRUCTURE>
Nc1cc(=O)[nH]c(N)n1

>  <outcome>
inactive

$$$$

###

test: qHTS Assay for Lipid Storage Modulators (AID 1519); conditions: Drosophila S3 cells, BODIPY lipid droplet/cell ratio, laser cytometry; at 57.5 µM (top of the series); cells loaded with oleic acid; also: % is scaled to controls: 0 for no effect and ±100 for the full control effect
Results filed as inconclusive are left out.
compounds and their reported activity change, negative = inhibition
Dear colleague, please return just the value in %, with no unit written.

// known answers, use as guide
>  <COMPOUND>
c1ccc2c(CC3=NCCN3)cccc2c1

>  <activity change, negative = inhibition (%)>
4.27

$$$$
>  <COMPOUND>
C=Cc1c(C)c2cc3[nH]c(cc4nc(cc5nc(cc1[nH]2)C(C)=C5CCC(=O)O)C(CCC(=O)O)=C4C)c(C)c3C=C

>  <activity change, negative = inhibition (%)>
12.2

$$$$
>  <COMPOUND>
O=c1cc(CO)occ1O

>  <activity change, negative = inhibition (%)>
0.978

$$$$
>  <COMPOUND>
CCCCCCCCCCCCCCCCCCOCC(O)CO (stereo not drawn)

>  <activity change, negative = inhibition (%)>
4.1

$$$$
>  <COMPOUND>
CCCn1cnc2c1c(=O)n(CCCCC(C)=O)c(=O)n2C

>  <activity change, negative = inhibition (%)>
0.49

$$$$

State, in one line, measured activity change, negative = inhibition of `C[C@](N)(Cc1ccc(O)cc1)C(=O)O`
2.05

Using the record for `C[C@H]1O[C@@H](n2cc(F)c(=O)[nH]c2=O)[C@H](O)[C@@H]1O` , state its measured activity change, negative = inhibition.
-0.32

Please supply the value of reported activity change, negative = inhibition for the item CN1CCN(C2Cc3ccccc3Sc3ccc(Cl)cc32)CC1 (stereo not drawn)
1.27

Dear colleague, please send me the reported activity change, negative = inhibition for `OCCN1CCN(CCCN2c3ccccc3Sc3ccc(Cl)cc32)CC1` when you can.
2.76

Please give measured activity change, negative = inhibition of the following entry: `Oc1cccc(O)c1`
4.72

###

Experiment: qHTS of pediatric cancer cell lines to identify multiple opportunities for drug repurposing: Primary screen for SK-N-MC cells (AID 1347093);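 also: plate controls were DMSO neutral control for no effect and bortezomib for full effect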
Conditions: SK-N-MC viability, CellTiter-Glo luminescence, 48 h; series mostly up to 46 µM
Protocol: Drug repurposing or repositioning has been offered as a strategy for drug development in oncology programs. […] [1] Shen, M et al. Quantitative high-throughput phenotypic screening of pediatric cancer cell lines identifies multiple opportunities for drug repurposing. […] Cells were assayed in growth media at a density of 500-1,000 cells/well. […] After a 15 min incubation at room temperature, samples were analyzed for luminescence intensity using a ViewLux High-throughput CCD imager equipped with clear filters.
Inconclusive results are not listed. Activity calls are given as the source filed them. Calls come from the whole dose curve; as a rule, active = well fitted cell-killing curve with a large enough effect; inconclusive = small, poorly fitted or top-dose-only effect; inactive = no such curve, though single readings can be large or run the other way.
Outcome field: choose from active, inactive

Here's what some known entries look like.
>  <COMPOUND>
CC(C)C(=O)c1c(C(C)C)nn2ccccc12

>  <GROUP_LABEL>
inactive

$$$$
>  <COMPOUND>
CCCCOc1cc(C(=O)OCCN(CC)CC)ccc1N

>  <GROUP_LABEL>
inactive

$$$$
>  <COMPOUND>
CCN(CC)CCNC(C(=O)OCCC(C)C)c1ccccc1 (stereo unspecified)

>  <GROUP_LABEL>
inactive

$$$$

Okay, next one:
Kindly provide the recorded test outcome for the following compound: CN1CCOC(c2ccccc2)c2ccccc2C1 (stereo unspecified)
inactive

###

assay: Drug repurposing screens with cells derived from glioblastoma tumor samples (AID 1345199); conditions: GBM patient neurospheres viability, ATP luminescence, 48 h; at 46.1 µM (top of the series); tumour line C; also: % is scaled to controls: 0 for no effect and ±100 for the full control effect; nearly all actives have a fitted effect of over 40% in size
Records with an inconclusive call do not appear. Activity calls are given as the source filed them. The call rests on the fitted dose curve; in most records, active means well fitted inhibition curve with a large enough effect; inconclusive means small, poorly fitted or top-dose-only effect; inactive means flat fitted curve, though single readings scatter.
activity, negative = cell killing values, listed per item

See these solved cases before continuing.
>  <MOLECULE>
CC(=O)CCC(=O)O

>  <activity, negative = cell killing>
-0.404% (inactive)

$$$$
>  <MOLECULE>
O=C1NS(=O)(=O)c2ccccc21

>  <activity, negative = cell killing>
-6.41% (inactive)

$$$$
>  <MOLECULE>
CC1(C)CO[C@@H](CC(=O)O)CN1

>  <activity, negative = cell killing>
-15.1% (inactive)

$$$$
>  <MOLECULE>
CSc1ccc2c(c1)N(CCC1CCCCN1C)c1ccccc1S2 (centres undefined)

>  <activity, negative = cell killing>
-0.209% (inactive)

$$$$
>  <MOLECULE>
CNC(=O)Oc1ccc2c(c1)[C@]1(C)CCN(C)[C@@H]1N2C

>  <activity, negative = cell killing>
-13.5% (inactive)

$$$$
>  <MOLECULE>
Cc1cccc(Nc2cc(Cl)nc(SCC(=O)O)n2)c1C

>  <activity, negative = cell killing>
0.18% (inactive)

$$$$

Give me measured activity, negative = cell killing, please, for this molecule: `Cc1ccc(C(C)C)cc2c(C)ccc1-2`
-3.49% (inactive)

Consider the molecule `CN(C)CCCN1c2ccccc2CCc2ccccc21` and give its recorded activity, negative = cell killing.
-2.23% (inactive)

Specify reported activity, negative = cell killing for the molecule shown: `O=C1O[C@H](CO)[C@@H](O)[C@H](O)[C@H]1O`
0.13% (inactive)

Provide activity, negative = cell killing value for the following molecule: `CC(C)C(=O)c1c(C(C)C)nn2ccccc12`
-20.7% (inactive)

Indicate its recorded activity, negative = cell killing; the molecule in question is CC(CN1c2ccccc2Sc2ccccc21)N(C)C (centres undefined)
-1.52% (inactive)

Specify reported activity, negative = cell killing for the molecule shown: `NC(=O)c1ncn([C@@H]2O[C@H](CO)[C@@H](O)[C@H]2O)c1N`
-3.52% (inactive)

Look up and report measured activity, negative = cell killing for this entry: `Oc1cccc(O)c1`
27.8% (inactive)

Identify activity, negative = cell killing associated with the molecule `c1ccc(CN(CC2=NCCN2)c2ccccc2)cc1`
-20.7% (inactive)

###

test: Primary qHTS for inhibitors of nuclear receptor binding SET domain protein 2 (NSD2) in an isogenic RCH-ACV NSD2 p.E1099K mutant (9B) (AID 1645876); details: RCH-ACV (leukaemia line) NSD2 E1099K (9B) viability, CellTiter-Glo, 72 h; series mostly up to 44.9 µM; also: nearly all actives have a fitted effect of over 70% in size
Results filed as inconclusive are left out. The source made the active and inactive calls. Calls come from the whole dose curve; as a rule, active = well fitted inhibition curve with a large enough effect; inconclusive = small, poorly fitted or top-dose-only effect; inactive = flat fitted curve, though single readings scatter.
Return exactly one item of active, inactive

Here are 10 compounds together with their reported answers.
>  <STRUCTURE>
Cc1cccc(C)c1NC(=O)CN(CC(=O)O)CC(=O)O

>  <GROUP_LABEL>
inactive

$$$$
>  <STRUCTURE>
CCCCCCCCCCCCCCCC(=O)NCCO

>  <GROUP_LABEL>
inactive

$$$$
>  <STRUCTURE>
CCCCOc1cc(C(=O)OCCN(CC)CC)ccc1N

>  <GROUP_LABEL>
inactive

$$$$
>  <STRUCTURE>
CCOC(=O)[C@H](CCc1ccccc1)N[C@@H](C)C(=O)N1C(=O)N(C)C[C@H]1C(=O)O

>  <GROUP_LABEL>
inactive

$$$$
>  <STRUCTURE>
CN(N=O)C(=O)N[C@@H]1[C@@H](O)[C@H](O)[C@@H](CO)O[C@@H]1O

>  <GROUP_LABEL>
inactive

$$$$
>  <STRUCTURE>
Cc1cc(N)c2ccccc2[n+]1CCCCCCCCCC[n+]1c(C)cc(N)c2ccccc21

>  <GROUP_LABEL>
active

$$$$
>  <STRUCTURE>
C[C@H](N)[C@H](O)c1cccc(O)c1

>  <GROUP_LABEL>
inactive

$$$$
>  <STRUCTURE>
NC(=O)NNc1ccccc1

>  <GROUP_LABEL>
inactive

$$$$
>  <STRUCTURE>
O=C(O)c1ccccc1O

>  <GROUP_LABEL>
inactive

$$$$
>  <STRUCTURE>
N[C@@H](CSCCCO)C(=O)O

>  <GROUP_LABEL>
inactive

$$$$

Hi, do you know how `O=Cc1ccccc1C=O` came out in this test?
inactive

Record request — test call for `CCC(=O)Nc1ccc(O)cc1`
inactive

How did this test come out for `Oc1cn2c(n1)Nc1ccc(Cl)c(Cl)c1C2` ?
inactive

###

assay: NFAT Signaling Pathway (AID 444); details: Jurkat NFAT-bla M1, carbachol, beta-lactamase ratio, 5 h; at 38 µM (top of the series);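 also: carbachol stimulus at about its EC50 of 1 µM final; % is scaled to controls: 0 for no effect and ±100 for the full control effect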
Inconclusive results are not listed.
Listed below: activity change, negative = inhibition values for each entry.
The reply should be a number in %, with the unit left off.

>  <STRUCTURE>
CCN(CC)CCNC(=O)c1cc(Cl)c(N)cc1OC

>  <UNIT_SYMBOL>
%

>  <activity change, negative = inhibition>
4.1

$$$$
>  <STRUCTURE>
CC(C)C(=O)c1c(C(C)C)nn2ccccc12

>  <UNIT_SYMBOL>
%

>  <activity change, negative = inhibition>
-1.94

$$$$

Could you please provide reported activity change, negative = inhibition for `NC(N)=NCCC[C@H](N)C(=O)O` ? Thanks!
-0.248

Please supply the value of reported activity change, negative = inhibition for the item `N=c1c[n+](N2CCOCC2)[n-]o1`
3.52
